For each of the compounds below, state its IC50.
# System: HeLa
# EXPERIMENT NOTES: Cytotoxicity against human HeLa cells assessed as growth inhibition by MTT assay
# Format: functional, cell-based
// return numeric value only (unit: nM, not printed)

Short answer for `CCCN(CCC)c1nc2c(O)cc3c4ccccc4oc3c2c(=O)[nH]1` : IC50 was 700

Lab note: `Cc1c2ccncc2c(C)c2c1[nH]c1ccccc12` gave IC50 of 1000

---

# EXPERIMENT NOTES: Cytotoxicity against rat R2C cells assessed as growth inhibition by MTT assay
# Assay type: functional, cell-based
QUANTITY MEASURED: IC50 (nM)
# number only, unit nM dropped from output

Looking up `Cc1c2ccncc2c(C)c2c1[nH]c1ccccc12` , I found its IC50 recorded as 2000

For `CCCN(CCC)c1nc2c(O)cc3c4ccccc4oc3c2c(=O)[nH]1` the molecule record lists IC50 as 1200
